biological target: LYR3 (Medicago truncatula); test: Saturation and competitive binding on LYR3-YFP expressed in N. benthamiana leaf membrane fractions; details: LYR3-YFP in N. benthamiana leaf membranes; competition with 0.9 nM LCO-IV(35S, C16:2Δ2,9); read-out: Affinity (nM) for LYR3 (Ki)
Sequence (G7KAT5 entry or part of it): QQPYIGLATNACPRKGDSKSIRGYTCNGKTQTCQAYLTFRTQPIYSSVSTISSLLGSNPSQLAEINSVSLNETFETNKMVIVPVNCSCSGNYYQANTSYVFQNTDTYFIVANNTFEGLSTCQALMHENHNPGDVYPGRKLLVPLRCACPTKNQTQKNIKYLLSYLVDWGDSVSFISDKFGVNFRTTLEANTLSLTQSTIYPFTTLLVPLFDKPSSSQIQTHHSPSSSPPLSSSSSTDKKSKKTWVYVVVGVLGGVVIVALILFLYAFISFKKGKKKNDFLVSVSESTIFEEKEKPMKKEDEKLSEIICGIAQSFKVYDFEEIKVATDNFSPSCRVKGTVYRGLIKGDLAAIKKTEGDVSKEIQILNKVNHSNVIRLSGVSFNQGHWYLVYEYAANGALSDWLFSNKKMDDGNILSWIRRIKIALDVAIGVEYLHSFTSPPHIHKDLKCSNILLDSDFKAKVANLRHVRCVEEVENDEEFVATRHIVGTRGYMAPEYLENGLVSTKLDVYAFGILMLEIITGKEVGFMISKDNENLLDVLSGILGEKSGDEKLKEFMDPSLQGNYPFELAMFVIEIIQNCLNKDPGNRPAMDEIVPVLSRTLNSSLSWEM
Ki values by entry
Please give the number followed by its unit.

Answered cases to consult:
CCCCCCCC/C=C\CCCCCCCC(=O)N[C@H]1[C@H](O[C@H]2[C@H](O)[C@@H](NC(C)=O)[C@H](O[C@H]3[C@H](O)[C@@H](NC(C)=O)[C@H](O[C@H]4[C@H](O)[C@@H](NC(C)=O)C(O)O[C@@H]4CO)O[C@@H]3CO)O[C@@H]2CO)O[C@H](CO)[C@@H](O)[C@@H]1O (stereo partly drawn) [LCO-IV(C18:1Δ9)] : 22 nM
CCCCCCCCCCCCCCCC(=O)N[C@H]1[C@H](O[C@H]2[C@H](O)[C@@H](NC(C)=O)[C@H](O[C@H]3[C@H](O)[C@@H](NC(C)=O)[C@H](O[C@H]4[C@H](O)[C@@H](NC(C)=O)C(O)O[C@@H]4CO)O[C@@H]3CO)O[C@@H]2CO)O[C@H](CO)[C@@H](O)[C@@H]1O (stereo partly drawn) [LCO-IV(C16:0)] : 15 nM
CC(=O)N[C@H]1[C@H](O[C@H]2[C@H](O)[C@@H](NC(C)=O)[C@H](O[C@H]3[C@H](O)[C@@H](NC(C)=O)C(O)O[C@@H]3CO)O[C@@H]2CO)O[C@H](CO)[C@@H](O[C@@H]2O[C@H](CO)[C@@H](O[C@@H]3O[C@H](CO)[C@@H](O[C@@H]4O[C@H](CO)[C@@H](O)[C@H](O)[C@H]4NC(C)=O)[C@H](O)[C@H]3NC(C)=O)[C@H](O)[C@H]2NC(C)=O)[C@@H]1O (stereo partly drawn) [CO-VI] : 1200 nM
CCCCCC/C=C\CCCCCCCC(=O)N[C@H]1[C@H](O[C@H]2[C@H](O)[C@@H](NC(C)=O)[C@H](O[C@H]3[C@H](O)[C@@H](NC(C)=O)[C@H](O[C@H]4[C@H](O)[C@@H](NC(C)=O)[C@H](O[C@H]5[C@H](O)[C@@H](NC(C)=O)C(O)O[C@@H]5CO)O[C@@H]4CO)O[C@@H]3CO)O[C@@H]2CO)O[C@H](CO)[C@@H](O)[C@@H]1O (stereo partly drawn) [LCO-V(C16:1Δ9)] : 4.3 nM
CCCCCCCCCCCCCCCC(=O)N[C@H]1[C@H](O[C@H]2[C@H](O)[C@@H](NC(C)=O)[C@H](O[C@H]3[C@H](O)[C@@H](NC(C)=O)[C@H](O[C@H]4[C@H](O)[C@@H](NC(C)=O)C(O)O[C@@H]4COS(=O)(=O)O)O[C@@H]3CO)O[C@@H]2CO)O[C@H](CO)[C@@H](O)[C@@H]1O (stereo partly drawn) [LCO-IV(S, C16:0)] : 26 nM

Data request: Endpoint output: Ki of CCCCCCCC/C=C\CCCCCCCC(=O)N[C@H]1[C@H](O[C@H]2[C@H](O)[C@@H](NC(C)=O)[C@H](O[C@H]3[C@H](O)[C@@H](NC(C)=O)[C@H](O[C@H]4[C@H](O)[C@@H](NC(C)=O)C(O)O[C@@H]4COS(=O)(=O)O)O[C@@H]3CO)O[C@@H]2CO)O[C@H](CO)[C@@H](O)[C@@H]1O (stereo partly drawn) [LCO-IV(S, C18:1Δ9)] . Value?
Data returned: 13.5 nM
